Each recorded value in this set is attributed to patent EP4603105A1.

Measured Kd values are reported for all entries that follow.
- system_tested: GDP-bound KRAS wild-type protein (Homo sapiens)
- assay_notes: Binding to KRAS by surface plasmon resonance (SPR), dissociation constant KD
- conditions: Single Cycle Kinetics
Report as a plain number; the unit nM is understood.

Here's what some known entries look like.
{"columns": ["compound", "value_kind", "readout_units", "value_observed"],
 "data": [
  ["C=CC[C@H]1C(=O)N(C)[C@H](C(=O)N(C)C)CC(=O)N(C)[C@@H](CC(C)C)C(=O)N[C@@H]([C@@H](C)CC)C(=O)N(C)CC(=O)N(C)[C@H]2C/C=C\\CCN(C2=O)[C@@H](Cc2ccc(C)cc2)C(=O)N(C)CC(=O)N[C@@H](CCc2cc(F)c(C(F)(F)F)c(F)c2)C(=O)N2C[C@H](OCC)C[C@H]2C(=O)N(C)C2(CCC2)C(=O)N1C [PP3348]", "Kd", "nM", 1.4],
  ["CCO[C@@H]1C[C@H]2C(=O)NC3(CCCC3)C(=O)N(C)[C@@H](C3CCCC3)C(=O)N(C)[C@H](C(=O)N(C)C)CC(=O)N(C)[C@@H]([C@@H](C)OC)C(=O)N[C@@H]([C@@H](C)CC)C(=O)N(C3CC3)CC(=O)N(C)[C@H]3C/C=C\\CCN(C3=O)[C@@H](Cc3ccc(C)cc3)C(=O)N(C)CC(=O)N[C@@H](CCc3cc(F)c(C(F)(F)F)c(F)c3)C(=O)N2C1 [PP3482]", "Kd", "nM", 0.6]
]}

(Q) Return value of Kd for input CCCOC[C@@H]1NC(=O)C[C@@H](C(=O)N(C)CCC)N(C)C(=O)[C@H](C2CCCC2)N(C)C(=O)C2(CC(C)(C)C2)NC(=O)[C@@H]2C[C@@H](OCC)CN2C(=O)[C@H](CCc2ccc(C(F)(F)F)c(OC)c2)NC(=O)CN(C)C(=O)[C@H](Cc2ccc(C(F)(F)F)cc2)N2CC/C=C\C[C@@H](C2=O)N(C)C(=O)CN(C)C(=O)[C@H]([C@@H](C)CC)NC1=O [PP3449] , no commentary.
(A) 0.25

* * *

Measured pKd values are reported for all entries that follow.
- system_tested: GDP-bound KRAS wild-type protein (Homo sapiens, UniProt P01116)
- Sequence (P01116 1-188 isoform P01116-2): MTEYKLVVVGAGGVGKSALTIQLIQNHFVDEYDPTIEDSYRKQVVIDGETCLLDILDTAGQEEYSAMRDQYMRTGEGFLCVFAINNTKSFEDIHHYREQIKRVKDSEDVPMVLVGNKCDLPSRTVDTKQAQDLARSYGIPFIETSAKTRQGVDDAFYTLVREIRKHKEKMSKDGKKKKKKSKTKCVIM
- assay_notes: Binding to KRAS by surface plasmon resonance (SPR), dissociation constant KD
- conditions: Single Cycle Kinetics
# pKd = -log10(concentration in molar units)

{"columns": ["molecule", "system_tested", "pKd"],
 "data": [
  ["CCO[C@@H]1C[C@H]2C(=O)NC3(CCCC3)C(=O)N(C)[C@@H](C3CCCC3)C(=O)N(C)[C@H](C(=O)N3CCOCC3)CC(=O)N(C)[C@@H](CC(C)C)C(=O)N[C@@H]([C@@H](C)CC)C(=O)N(C)CC(=O)N(C)[C@H]3CCCCCN(C3=O)[C@@H](Cc3ccc(F)cc3)C(=O)N(C)CC(=O)N[C@@H](CCc3ccc(C(F)(F)F)c(Cl)c3)C(=O)N2C1 [PP0965]", "GDP-bound KRAS wild-type protein (Homo sapiens, UniProt P01116)", 9.24]
]}

Next item in the queue.
(Q) Return value of pKd for input CCC[C@H]1C(=O)N[C@@H]([C@@H](C)CC)C(=O)N(C)CC(=O)N(C)[C@H]2C/C=C\CCN(C2=O)[C@@H](Cc2ccc(C(F)(F)F)cc2)C(=O)N(C)CC(=O)N[C@@H](CCc2ccc(C(F)(F)F)c(Cl)c2)C(=O)N2CC3(CC3)C[C@H]2C(=O)N(C)C2(CCC2)C(=O)N(C)[C@@H]([C@@H](C)CC)C(=O)N(C)[C@H](C(=O)N(C)C)CC(=O)N1C [PP3299] , no commentary.
(A) 9.96

* * *

Measured Kd values are reported for all entries that follow.
- system_tested: GDP-bound KRAS wild-type protein (Homo sapiens)
- assay_notes: Binding to KRAS by surface plasmon resonance (SPR), dissociation constant KD
- conditions: Single Cycle Kinetics
Where a SMILES comes first, the peptide text is derived from it. Bridges are numbered along the chain shown (N, C = ends). [ ]: non-standard residue; d: D form. The star is where a group is joined. hPhe(3,5-F2-4-CF3) = N[C@@H](CCc1cc(F)c(C(F)(F)F)c(F)c1)C(=O)O; NPrPhe(4-CF3) = CCCN[C@@H](Cc1ccc(C(F)(F)F)cc1)C(=O)O; NMeGly(cPent) = CN[C@H](C(=O)O)C1CCCC1; NMeD = CN[C@@H](CC(=O)O)C(=O)O; NMeL = CN[C@@H](CC(C)C)C(=O)O; αMeV = CC(C)[C@](C)(N)C(=O)O; Morpholide = C1CN(*)CCO1; Aze = O=C(O)[C@@H]1CCN1; Sar = CNCC(=O)O
Report as a plain number; the unit nM is understood.

{"columns": ["compound", "system_tested", "Kd, nM"],
 "data": [
  ["C=CCN1CC(=O)N(C)[C@H]2C/C=C\\CCN(C2=O)[C@@H](Cc2ccc(C(F)F)cc2)C(=O)N(C)CC(=O)N[C@@H](CCc2ccc(C(F)(F)F)cc2Cl)C(=O)N2C[C@H](OC(C)C)C[C@H]2C(=O)N(C)C2(CCC2)C(=O)N(C)[C@@H](C(CC)CC)C(=O)N(C)[C@H](C(=O)N(C)C)CC(=O)N(C)[C@@H](CC2CC2)C(=O)N[C@@H]([C@@H](C)OCCC)C1=O [PP3493]", "GDP-bound KRAS wild-type protein (Homo sapiens)", 1],
  ["C#CC[C@H]1C(=O)N[C@@H]([C@@H](C)CC)C(=O)N2CCC[C@H]2C(=O)N(C)[C@H]2C/C=C\\CCN(C2=O)[C@@H](Cc2ccc(C)cc2)C(=O)N(C)CC(=O)N[C@@H](CCc2ccc(C(F)(F)F)c(OC)c2)C(=O)N2C[C@H](OCC)C[C@H]2C(=O)N(C)C2(CCC2)C(=O)N(C)[C@@H](C2CCCC2)C(=O)N(C)[C@H](C(=O)N(C)C)CC(=O)N1C [PP3255]", "GDP-bound KRAS wild-type protein (Homo sapiens)", 0.1],
  ["CCCO[C@@H]1C[C@H]2C(=O)NC3(CC(C)(C)C3)C(=O)N(C)[C@@H](C3CCCC3)C(=O)N(C)[C@H](C(=O)N(C)CC)CC(=O)N(C)[C@@H](COCC)C(=O)N[C@@H]([C@@H](C)CC)C(=O)N3C[C@@H](C)C[C@H]3C(=O)N(C)[C@H]3C/C=C\\CCN(C3=O)[C@@H](Cc3ccc(C(F)(F)F)cc3)C(=O)N(C)CC(=O)N[C@@H](CCc3cc(F)c(C(F)(F)F)c(F)c3)C(=O)N2C1 [PP3472]", "GDP-bound KRAS wild-type protein (Homo sapiens)", 3],
  ["CCCN1C(=O)CN(C)C(=O)[C@@H]2CCN2C(=O)[C@H]([C@@H](C)CC)NC(=O)[C@H](CC(C)C)N(C)C(=O)C[C@@H](C(=O)N2CCOCC2)N(C)C(=O)[C@H](C2CCCC2)N(C)C(=O)[C@](C)(C(C)C)NC(=O)[C@@H]2CCCN2C(=O)[C@H](CCc2cc(F)c(C(F)(F)F)c(F)c2)NC(=O)CN(C)C(=O)[C@@H]1Cc1ccc(C(F)(F)F)cc1 [PP0773] ([NMeL]I[Aze][Sar][NPrPhe(4-CF3)][Sar][hPhe(3,5-F2-4-CF3)]P[αMeV][NMeGly(cPent)][NMeD]-Morpholide; lactam N-11)", "GDP-bound KRAS wild-type protein (Homo sapiens)", 4],
  ["CCC[C@H]1C(=O)N[C@@H]([C@@H](C)CC)C(=O)N(C)CC(=O)N(C)[C@H]2C/C=C\\CCN(C2=O)[C@@H](Cc2ccc(C)cc2)C(=O)N(C)CC(=O)N[C@@H](CCc2ccc(C(F)(F)F)c(Cl)c2)C(=O)N2CC3(CC3)C[C@H]2C(=O)N(C)C2(CCC2)C(=O)N(C)[C@@H]([C@@H](C)CC)C(=O)N(C)[C@H](C(=O)N(C)C)CC(=O)N1C [PP3302]", "GDP-bound KRAS wild-type protein (Homo sapiens)", 0.081]
]}

(Q) Return value of Kd for input CCO[C@@H]1C[C@H]2C(=O)N(C)C3(CCC3)C(=O)N(C)[C@@H](C3CCCC3)C(=O)N(C)[C@H](C(=O)N(C)C)CC(=O)N(C)[C@@H](CC(C)C)C(=O)N[C@@H]([C@@H](C)CC)C(=O)N(C)CC(=O)N(C)[C@H]3C/C=C\CCN(C3=O)[C@@H](Cc3ccc(C(F)(F)F)cc3)C(=O)N(C)CC(=O)N[C@@H](CCc3cc(F)c(C(F)(F)F)c(F)c3)C(=O)N2C1 [PP3484] , no commentary.
(A) 0.027

(Q) Return value of Kd for input CCO[C@@H]1C[C@H]2C(=O)NC3(CCC3)C(=O)N(C)[C@@H](C(CC)CC)C(=O)N(C)[C@H](C(=O)N3CCOCC3)CC(=O)N(C)[C@@H](CC(C)C)C(=O)N[C@@H]([C@@H](C)CC)C(=O)N(C)CC(=O)N(C)[C@H]3CCCCCN(C3=O)[C@@H](Cc3ccc(C(F)(F)F)cc3)C(=O)N(C)CC(=O)N[C@@H](CCc3cc(F)c(C(F)(F)F)c(F)c3)C(=O)N2C1 [PP0820] , no commentary.
(A) 1.2

(Q) Return value of Kd for input C#CC[C@H]1C(=O)N[C@@H]([C@@H](C)CC)C(=O)N(C2CC2)CC(=O)N(C)[C@H]2C/C=C\CCN(C2=O)[C@@H](Cc2ccc(C(F)(F)F)cc2)C(=O)N(C)CC(=O)N[C@@H](CCc2ccc(C(F)(F)F)c(OC)c2)C(=O)N2C[C@H](OCC)C[C@H]2C(=O)OC2(CCC2)C(=O)N(C)[C@@H](C2CCCC2)C(=O)N(C)[C@H](C(=O)N(C)C)CC(=O)N1C [PP3372] , no commentary.
(A) 1.5

(Q) Return value of Kd for input CCO[C@@H]1C[C@H]2C(=O)NC3(CCC3)C(=O)N(C)[C@@H](C3CCCC3)C(=O)N(C)[C@H](C(=O)N3CCOCC3)CC(=O)N(C)[C@@H](CC(C)C)C(=O)N[C@@H](C3CC(F)(F)C3)C(=O)N(C)CC(=O)N(C)[C@H]3CCCCCN(C3=O)[C@@H](Cc3ccc(C(F)(F)F)cc3)C(=O)N(C)CC(=O)N[C@@H](CCc3cc(F)c(C(F)(F)F)c(F)c3)C(=O)N2C1 [PP0816] , no commentary.
(A) 0.5

(Q) Return value of Kd for input CCO[C@@H]1C[C@H]2C(=O)OC3(CCC3)C(=O)N(C)[C@@H](C3CCCC3)C(=O)N(C)[C@H](C(=O)N(C)C)CC(=O)N(C)[C@@H]([C@H](C)OC)C(=O)N[C@@H]([C@@H](C)CC)C(=O)N3CCC[C@H]3C(=O)N(C)[C@H]3C/C=C\CCN(C3=O)[C@@H](Cc3ccc(C)cc3)C(=O)N(C)CC(=O)N[C@@H](CCc3ccc(C(F)(F)F)c(OC)c3)C(=O)N2C1 [PP3395] , no commentary.
(A) 0.82
